Biological target: GR (Homo sapiens, UniProt P04150)
Construct: endogenous in cells; host or cells: A549 (human lung carcinoma, ECACC No. 86012804), stably transfected with reporter plasmids only
Sequence (P04150 whole entry): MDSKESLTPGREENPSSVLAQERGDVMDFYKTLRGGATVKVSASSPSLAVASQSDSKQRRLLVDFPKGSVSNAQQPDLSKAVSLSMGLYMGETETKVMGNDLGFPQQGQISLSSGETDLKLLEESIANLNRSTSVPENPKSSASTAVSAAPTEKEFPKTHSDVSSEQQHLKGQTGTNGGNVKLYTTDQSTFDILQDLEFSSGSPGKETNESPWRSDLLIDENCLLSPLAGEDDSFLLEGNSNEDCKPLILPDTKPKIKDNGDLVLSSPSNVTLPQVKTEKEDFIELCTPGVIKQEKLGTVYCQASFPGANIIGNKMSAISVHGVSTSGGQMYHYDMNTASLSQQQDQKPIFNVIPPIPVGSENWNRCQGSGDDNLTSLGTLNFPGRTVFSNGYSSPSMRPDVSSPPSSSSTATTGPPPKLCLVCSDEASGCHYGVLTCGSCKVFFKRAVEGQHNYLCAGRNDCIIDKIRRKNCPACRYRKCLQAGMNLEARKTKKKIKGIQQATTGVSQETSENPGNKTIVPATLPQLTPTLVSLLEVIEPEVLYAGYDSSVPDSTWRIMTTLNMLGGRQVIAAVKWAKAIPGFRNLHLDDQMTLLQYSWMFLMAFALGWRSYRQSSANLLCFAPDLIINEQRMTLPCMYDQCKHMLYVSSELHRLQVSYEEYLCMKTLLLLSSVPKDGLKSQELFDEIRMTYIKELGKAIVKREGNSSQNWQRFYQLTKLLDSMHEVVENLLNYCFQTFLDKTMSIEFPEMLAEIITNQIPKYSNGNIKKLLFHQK
Experiment: GR Agonist Assay - MMTV Assay (A549 MMTV cells, renilla luciferase reporter)
Assay type: cell-based
Settings: 6 h, agonists, read-out: average maximum asymptote in the MMTV agonist assay
assay_endpoint: Emax

Use the examples below as a reference point.
compound: CN(CC(O)(CNC(=O)c1cnn(-c2ccc(F)cc2)c1N)C(F)(F)F)C(=O)c1ccccc1F (racemic) [Example 6 (racemic)]
observed_result: ≥ 40%

compound: CCN(CC(O)(CNC(=O)c1cnn(-c2cccc(Cl)c2)c1N)C(F)(F)F)C(=O)c1ccccc1 (racemic) [Example 37 (racemic)]
observed_result: ≥ 40%

We now examine a further compound.
Form: item CCN(CC(O)(CNC(=O)c1cnn(-c2ccc(F)cc2)c1N)C(F)(F)F)C(=O)c1cccc(F)c1F (racemic) [Example 5 (racemic)] ; test system GR (Homo sapiens, UniProt P04150); Emax: ≥ 40%

Where these numbers come from: patent US20100035926A1
